These data points were gathered from patent US20190112365A1.

Biological target: T1, Human Tau 2N4R, wild type, recombinant full length (human, UniProt P10636 2-758)
T1 construct: Full length 2N4R isoform; monomer in SPR and ELISA; heparin-induced aggregates or seeds in the functional assays; also called Tau441; Tau-441
T1 sequence (P10636 other isoform, or with tags, fused parts or gaps limits assumed): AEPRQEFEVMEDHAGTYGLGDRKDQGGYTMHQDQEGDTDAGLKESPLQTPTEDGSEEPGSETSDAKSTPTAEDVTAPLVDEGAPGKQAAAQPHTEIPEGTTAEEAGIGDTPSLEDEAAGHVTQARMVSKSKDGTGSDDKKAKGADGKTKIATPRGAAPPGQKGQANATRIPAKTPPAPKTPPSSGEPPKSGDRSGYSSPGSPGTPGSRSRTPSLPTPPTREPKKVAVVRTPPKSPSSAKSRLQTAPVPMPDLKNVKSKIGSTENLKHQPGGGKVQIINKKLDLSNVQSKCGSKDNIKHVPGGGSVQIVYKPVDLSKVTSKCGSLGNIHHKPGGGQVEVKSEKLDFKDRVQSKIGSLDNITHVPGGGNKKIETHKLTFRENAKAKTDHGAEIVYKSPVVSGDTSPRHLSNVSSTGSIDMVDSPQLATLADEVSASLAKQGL
Test: SPR BIAcore, mAb captured by anti-human IgG, Tau flowed, 1:1 Langmuir
Assay metric: pKd
Scale: negative log10 of molar concentration, which is what pKd denotes.

-- ask Answer with the recorded pKd for the binder listed here: 7G6-HCzu8-LCzu6 (antibody, human IgG1, kappa, V domains shown, N-terminal pyroglutamic acid, humanized, human IgG1 kappa; also called 7G6-HCzu8-LCzu6-HEK; ATCC PTA-124523) VH: QVQLVQSGAEVKKPGASVKVSCKASGYTFTTYWITWVRQAPGQGLEWMGDIYPGSSISNYAQKFQGRVTMTRDTSTSTVYMELSSLRSEDTAVYYCAREDGYDAWFAYWGQGTLVTVSS VL: DVVMTQSPLSLPVTLGQPASISCRSSQSILHSNGNTYLEWYQQRPGQSPRLLISKVSNRFSGVPDRFSGSGSGTDFTLKISRVEAEDVGVYYCFQGSHVPFTFGQGTKLEIKR
-- reply 10.01

-- ask Answer with the recorded pKd for the binder listed here: 7G6-HCzu3-LCzu1 (antibody, human IgG1, kappa, V domains shown, humanized, human IgG1 kappa) VH: QVQLVQSGAEVKKPGASVKVSCKASGYTFTTYWITWVRQAPGQGLEWMGDIYPGSSICNYNEKFKSRVTMTVDTSTSTAYMELSSLRSEDTAVYYCAREDGYDAWFAYWGQGTLVTVSS VL: DVVMTQSPLSLPVTLGQPASISCRSSQSILHSNGNTYLEWFQQRPGQSPRRLIYKVSNRFSGVPDRFSGSGSGTDFTLKISRVEAEDVGVYYCFQGSHVPFTFGQGTKLEIKR
-- reply 9.51

-- ask Answer with the recorded pKd for the binder listed here: 7G6-HCzu4-LCzu1 (antibody, human IgG1, kappa, V domains shown, humanized, human IgG1 kappa) VH: QVQLVQSGAEVKKPGASVKVSCKASGYTFTTYWITWVRQAPGQGLEWMGDIYPGSSICNYAQKFQGRVTMTVDTSTSTAYMELSSLRSEDTAVYYCAREDGYDAWFAYWGQGTLVTVSS VL: DVVMTQSPLSLPVTLGQPASISCRSSQSILHSNGNTYLEWFQQRPGQSPRRLIYKVSNRFSGVPDRFSGSGSGTDFTLKISRVEAEDVGVYYCFQGSHVPFTFGQGTKLEIKR
-- reply 9.63

-- ask Answer with the recorded pKd for the binder listed here: 7G6-HCzu5-LCzu21 (antibody, human IgG1, kappa, V domains shown, humanized, human IgG1 kappa) VH: QVQLVQSGAEVKKPGASVKVSCKASGYTFTTYWITWVRQAPGQGLEWMGDIYPGSSISNYNEKFKSRVTMTVDTSTSTAYMELSSLRSEDTAVYYCAREDGYDAWFAYWGQGTLVTVSS VL: DVVMTQSPLSLPVTLGQPASISCRSSQSILHSNGNTYLEWFQQRPGQSPRLLISKVSNRFSGVPDRFSGSGSGTDFTLKISRVEAEDVGVYYCFQGSHVPFTFGQGTKLEIKR
-- reply 10.02
